experiment: Metabolic stability in rat hepatocytes (rHep); details: n = 1 or geometric mean of n = 2-3
Each entry below carries its reported rHep CLint.

{"compound": "CC1(O)CCN(c2ccc3nccc(C(=O)NCC(=O)N4CSC[C@H]4C#N)c3c2)CC1 [Example 190]", "rHep CLint": "<1 μL/min/1E6"}
{"compound": "CC1(CC(F)F)CN(c2ccc3nccc(C(=O)NCC(=O)N4CSC[C@H]4C#N)c3c2)C1 [Example 133]", "rHep CLint": "8.8 μL/min/1E6"}
{"compound": "COC[C@@H]1CCCN1c1ccc2nccc(C(=O)NCC(=O)N3CSC[C@H]3C#N)c2c1 [Example 212]", "rHep CLint": "57 μL/min/1E6"}
{"compound": "Cc1ccc(C2CN(c3ccc4nccc(C(=O)NCC(=O)N5CSC[C@H]5C#N)c4c3)C2)cc1 [Example 183]", "rHep CLint": "19 μL/min/1E6"}
{"compound": "N#C[C@@H]1CSCN1C(=O)CNC(=O)c1ccnc2ccc(N3CCCCC3=O)cc12 [Example 14]", "rHep CLint": "<1 μL/min/1E6"}
{"compound": "N#C[C@@H]1CSCN1C(=O)CNC(=O)c1ccnc2ccc(N3CC(CCF)C3)cc12 [Example 146]", "rHep CLint": "4.3 μL/min/1E6"}
{"compound": "CC1(C)CCN(c2ccc3nccc(C(=O)NCC(=O)N4CSC[C@H]4C#N)c3c2)C1 [Example 48]", "rHep CLint": "51 μL/min/1E6"}
{"compound": "Cc1cccc(C2CN(c3ccc4nccc(C(=O)NCC(=O)N5CSC[C@H]5C#N)c4c3)C2)c1 [Example 186]", "rHep CLint": "24 μL/min/1E6"}
{"compound": "N#C[C@@H]1CSCN1C(=O)CNC(=O)c1ccnc2ccc(N3CC(F)(F)OC(F)(F)C3)cc12 [Example 5]", "rHep CLint": "32 μL/min/1E6"}
{"compound": "N#C[C@@H]1CSCN1C(=O)CNC(=O)c1ccnc2ccc(N3CC[C@H](F)C3)cc12 [Example 51]", "rHep CLint": "24 μL/min/1E6"}
{"compound": "N#C[C@@H]1CSCN1C(=O)CNC(=O)c1ccnc2ccc(N3CCC(F)(c4ccccc4)CC3)cc12 [Example 223]", "rHep CLint": "51 μL/min/1E6"}
{"compound": "CC1(C)CCc2cn(-c3ccc4nccc(C(=O)NCC(=O)N5CSC[C@H]5C#N)c4c3)nc21 [Example 117]", "rHep CLint": "29 μL/min/1E6"}
{"compound": "N#C[C@@H]1CSCN1C(=O)CNC(=O)c1ccnc2ccc(N3CC4(CC4)C[C@@H]3CF)cc12 [Example 58]", "rHep CLint": "72 μL/min/1E6"}
{"compound": "N#C[C@@H]1CSCN1C(=O)CNC(=O)c1ccnc2ccc(N3CC4(CCC4)C3)cc12 [Example 17]", "rHep CLint": "16 μL/min/1E6"}
{"compound": "N#C[C@@H]1CSCN1C(=O)CNC(=O)c1ccnc2ccc(N3CCOC4(CCOCC4)C3)cc12 [Example 99]", "rHep CLint": "8.1 μL/min/1E6"}
{"compound": "C[C@@H]1CCN(c2ccc3nccc(C(=O)NCC(=O)N4CSC[C@H]4C#N)c3c2)CCO1 [Example 61]", "rHep CLint": "26 μL/min/1E6"}
{"compound": "CC1(C)CCN(c2ccc3nccc(C(=O)NCC(=O)N4CSC[C@H]4C#N)c3c2)C1=O [Example 12]", "rHep CLint": "<1 μL/min/1E6"}
{"compound": "N#C[C@@H]1CSCN1C(=O)CNC(=O)c1ccnc2ccc(-c3ccnc(F)c3)cc12 [Example 124]", "rHep CLint": "14 μL/min/1E6"}
{"compound": "N#C[C@@H]1CSCN1C(=O)CNC(=O)c1ccnc2ccc(N3CCC[C@@H]3C3CC3)cc12 (single isomer, unassigned) [Example 199]", "rHep CLint": "250 μL/min/1E6"}
{"compound": "N#C[C@@H]1CSCN1C(=O)CNC(=O)c1ccnc2ccc(N3C[C@@H](F)[C@H](F)C3)cc12 [Example 214]", "rHep CLint": "15 μL/min/1E6"}
{"compound": "N#C[C@@H]1CSCN1C(=O)CNC(=O)c1ccnc2ccc(-n3cc4c(n3)CCCC4)cc12 [Example 115]", "rHep CLint": "20 μL/min/1E6"}
{"compound": "C[C@H]1CCCN1c1ccc2nccc(C(=O)NCC(=O)N3CSC[C@H]3C#N)c2c1 [Example 65]", "rHep CLint": "110 μL/min/1E6"}
{"compound": "C[C@H]1CC(F)(F)CCN1c1ccc2nccc(C(=O)NCC(=O)N3CSC[C@H]3C#N)c2c1 (mixture of isomers) [Example 44]", "rHep CLint": "160 μL/min/1E6"}
{"compound": "C[C@H]1CCN(c2ccc3nccc(C(=O)NCC(=O)N4CSC[C@H]4C#N)c3c2)CCO1 [Example 62]", "rHep CLint": "46 μL/min/1E6"}
{"compound": "N#C[C@@H]1CSCN1C(=O)CNC(=O)c1ccnc2ccc(N3CC4(CCCC4)C3)cc12 [Example 139]", "rHep CLint": "13 μL/min/1E6"}
{"compound": "N#C[C@@H]1CSCN1C(=O)CNC(=O)c1ccnc2ccc(N3C[C@@H]4[C@H](C3)[C@H]4C(F)(F)F)cc12 [Example 208]", "rHep CLint": "12 μL/min/1E6"}
{"compound": "C[C@H]1N(c2ccc3nccc(C(=O)NCC(=O)N4CSC[C@H]4C#N)c3c2)CC1(F)F (mixture of isomers) [Example 159]", "rHep CLint": "47 μL/min/1E6"}
{"compound": "N#C[C@@H]1CSCN1C(=O)CNC(=O)c1ccnc2ccc(N3CC(CCC(F)(F)F)C3)cc12 [Example 142]", "rHep CLint": "6.7 μL/min/1E6"}
{"compound": "Cc1noc(C)c1-c1ccc2nccc(C(=O)NCC(=O)N3CSC[C@H]3C#N)c2c1 [Example 216]", "rHep CLint": "17 μL/min/1E6"}
{"compound": "CCC1(C)CN(c2ccc3nccc(C(=O)NCC(=O)N4CSC[C@H]4C#N)c3c2)C1 [Example 137]", "rHep CLint": "17 μL/min/1E6"}
{"compound": "CC(C)C1CN(c2ccc3nccc(C(=O)NCC(=O)N4CSC[C@H]4C#N)c3c2)C1 [Example 148]", "rHep CLint": "12 μL/min/1E6"}

Origin of values: patent US20230312550A1
